Target: T1, USP2 (UniProt O75604 259-605)
T1 chain: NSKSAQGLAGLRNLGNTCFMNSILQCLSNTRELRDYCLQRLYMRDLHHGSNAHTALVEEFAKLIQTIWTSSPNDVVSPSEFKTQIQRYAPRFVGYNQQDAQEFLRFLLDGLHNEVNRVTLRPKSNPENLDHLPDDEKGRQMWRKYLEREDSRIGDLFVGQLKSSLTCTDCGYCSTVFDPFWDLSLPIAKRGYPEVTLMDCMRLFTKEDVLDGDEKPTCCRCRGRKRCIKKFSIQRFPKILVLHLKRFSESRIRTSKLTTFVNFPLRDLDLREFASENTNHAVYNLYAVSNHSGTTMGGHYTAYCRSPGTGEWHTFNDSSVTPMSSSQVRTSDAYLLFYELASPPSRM
Assay: ubiquitin-AMC enzyme inhibition
Recorded metric: IC50

# query: IC50 of entry VSRCYIFWNEMFCDVE [peptide USP30-8]
~200 µM

Measured values drawn from patent US20150344888A1 for this set.
